assayTarget: hERG (KCNH2) (Homo sapiens, UniProt Q12809)
Sequence (Q12809 whole entry): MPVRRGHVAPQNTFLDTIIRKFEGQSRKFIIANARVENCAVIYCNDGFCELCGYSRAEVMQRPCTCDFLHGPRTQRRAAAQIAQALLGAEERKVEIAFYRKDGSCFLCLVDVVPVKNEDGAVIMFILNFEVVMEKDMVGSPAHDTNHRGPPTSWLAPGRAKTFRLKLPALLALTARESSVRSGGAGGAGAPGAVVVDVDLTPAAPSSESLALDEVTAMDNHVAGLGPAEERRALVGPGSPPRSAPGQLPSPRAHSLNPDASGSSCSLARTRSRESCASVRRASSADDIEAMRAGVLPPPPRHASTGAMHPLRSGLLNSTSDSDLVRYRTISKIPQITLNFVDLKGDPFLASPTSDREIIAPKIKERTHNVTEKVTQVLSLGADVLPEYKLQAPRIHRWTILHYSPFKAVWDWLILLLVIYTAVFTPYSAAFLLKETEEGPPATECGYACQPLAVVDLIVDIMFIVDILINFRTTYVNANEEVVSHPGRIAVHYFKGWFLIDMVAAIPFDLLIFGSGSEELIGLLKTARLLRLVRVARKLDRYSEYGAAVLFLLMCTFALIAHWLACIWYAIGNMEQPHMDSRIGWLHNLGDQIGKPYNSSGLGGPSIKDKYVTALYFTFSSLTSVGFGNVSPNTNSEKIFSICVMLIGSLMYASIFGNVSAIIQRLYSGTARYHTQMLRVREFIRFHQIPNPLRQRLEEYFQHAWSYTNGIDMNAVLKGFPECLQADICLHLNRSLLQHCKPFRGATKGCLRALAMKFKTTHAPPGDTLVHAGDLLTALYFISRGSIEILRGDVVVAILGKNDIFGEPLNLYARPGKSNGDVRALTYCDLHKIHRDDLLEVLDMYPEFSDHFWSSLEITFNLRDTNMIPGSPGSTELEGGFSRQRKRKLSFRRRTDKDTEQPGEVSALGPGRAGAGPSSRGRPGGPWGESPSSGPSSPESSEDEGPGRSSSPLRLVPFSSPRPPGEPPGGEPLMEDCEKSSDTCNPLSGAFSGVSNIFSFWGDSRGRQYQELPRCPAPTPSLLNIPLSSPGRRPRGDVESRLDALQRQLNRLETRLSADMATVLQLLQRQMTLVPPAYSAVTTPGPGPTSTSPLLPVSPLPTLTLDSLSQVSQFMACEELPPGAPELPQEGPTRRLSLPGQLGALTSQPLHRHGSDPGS
measurementDescription: Potency index, ratio of E-4031 IC50 to compound IC50 for inhibition of human ERG
settings: read-out: Ratio IC50
endpointLabel: selectivity ratio
Response field accepts a number only; no unit should be typed.

[ask] I have this compound here, CNC(=O)c1cc(-n2ccc3cc(NC(=O)Nc4ccc(N5CCN(C)CC5)c(C(F)(F)F)c4)ccc32)ccn1 , and I need its recorded selectivity ratio.
[reply] 3720

###

Listed here are molecules together with their documented viability at 10 µM.
System: HepG2
measurementDescription: Antiproliferative activity against human HepG2 cells assessed as cell viability at 10 uM after 48 hrs by MTT assay relative to control
Assay type: functional
settings: read-out: Activity
Don't forget the unit after the value.

Consider the worked cases shown below.
>>> measurement("CNC(=O)c1cc(-n2ccc3cc(NC(=O)c4ccc(Cl)c(C(F)(F)F)c4)ccc32)ccn1")
"32%"
>>> measurement("CNC(=O)c1cc(-n2ccc3cc(NC(=O)Nc4ccc(Cl)c(C(F)(F)F)c4)ccc32)ccn1")
"55%"
>>> measurement("CNC(=O)c1cc(-n2ccc3cc(NC(=O)Nc4ccc(N5CCN(C)CC5)c(C(F)(F)F)c4)ccc32)ccn1")
"27%"

[ask] I have this molecule here, CNC(=O)c1cc(-n2ccc3cc(NS(=O)(=O)c4cc(C(F)(F)F)cc(C(F)(F)F)c4)ccc32)ccn1 , and I need its recorded viability at 10 µM.
[reply] 96%

###

Tested on: Huh-7
measurementDescription: Antiproliferative activity against human Huh-7 cells assessed as reduction in cell viability after 48 hrs by MTT assay
Format: functional, cell-based
settings: Huh-7, 48 h
endpointLabel: IC50 (µM)
Provide only the numeric value, understood in µM.

>>> measurement("CNC(=O)c1cc(Oc2ccc(NC(=O)Nc3ccc(Cl)c(C(F)(F)F)c3)cc2)ccn1 [SORAFENIB]")
7.55
>>> measurement("CNC(=O)c1cc(-n2ccc3cc(NC(=O)Nc4cc(C(F)(F)F)cc(C(F)(F)F)c4)ccc32)ccn1")
5.01
>>> measurement("CNC(=O)c1cc(-n2ccc3cc(NC(=O)Nc4ccc(Cl)c(C(F)(F)F)c4)ccc32)ccn1")
15.4

Now consider the entry below.
[ask] I have this compound here, CNC(=O)c1cc(-n2ccc3cc(NC(=O)Nc4ccc(Cl)c(Cl)c4)ccc32)ccn1 , and I need its recorded IC50.
[reply] 7.96

###

assayTarget: Vascular endothelial growth factor receptor 3 (Homo sapiens)
Sequence (P35916 whole entry): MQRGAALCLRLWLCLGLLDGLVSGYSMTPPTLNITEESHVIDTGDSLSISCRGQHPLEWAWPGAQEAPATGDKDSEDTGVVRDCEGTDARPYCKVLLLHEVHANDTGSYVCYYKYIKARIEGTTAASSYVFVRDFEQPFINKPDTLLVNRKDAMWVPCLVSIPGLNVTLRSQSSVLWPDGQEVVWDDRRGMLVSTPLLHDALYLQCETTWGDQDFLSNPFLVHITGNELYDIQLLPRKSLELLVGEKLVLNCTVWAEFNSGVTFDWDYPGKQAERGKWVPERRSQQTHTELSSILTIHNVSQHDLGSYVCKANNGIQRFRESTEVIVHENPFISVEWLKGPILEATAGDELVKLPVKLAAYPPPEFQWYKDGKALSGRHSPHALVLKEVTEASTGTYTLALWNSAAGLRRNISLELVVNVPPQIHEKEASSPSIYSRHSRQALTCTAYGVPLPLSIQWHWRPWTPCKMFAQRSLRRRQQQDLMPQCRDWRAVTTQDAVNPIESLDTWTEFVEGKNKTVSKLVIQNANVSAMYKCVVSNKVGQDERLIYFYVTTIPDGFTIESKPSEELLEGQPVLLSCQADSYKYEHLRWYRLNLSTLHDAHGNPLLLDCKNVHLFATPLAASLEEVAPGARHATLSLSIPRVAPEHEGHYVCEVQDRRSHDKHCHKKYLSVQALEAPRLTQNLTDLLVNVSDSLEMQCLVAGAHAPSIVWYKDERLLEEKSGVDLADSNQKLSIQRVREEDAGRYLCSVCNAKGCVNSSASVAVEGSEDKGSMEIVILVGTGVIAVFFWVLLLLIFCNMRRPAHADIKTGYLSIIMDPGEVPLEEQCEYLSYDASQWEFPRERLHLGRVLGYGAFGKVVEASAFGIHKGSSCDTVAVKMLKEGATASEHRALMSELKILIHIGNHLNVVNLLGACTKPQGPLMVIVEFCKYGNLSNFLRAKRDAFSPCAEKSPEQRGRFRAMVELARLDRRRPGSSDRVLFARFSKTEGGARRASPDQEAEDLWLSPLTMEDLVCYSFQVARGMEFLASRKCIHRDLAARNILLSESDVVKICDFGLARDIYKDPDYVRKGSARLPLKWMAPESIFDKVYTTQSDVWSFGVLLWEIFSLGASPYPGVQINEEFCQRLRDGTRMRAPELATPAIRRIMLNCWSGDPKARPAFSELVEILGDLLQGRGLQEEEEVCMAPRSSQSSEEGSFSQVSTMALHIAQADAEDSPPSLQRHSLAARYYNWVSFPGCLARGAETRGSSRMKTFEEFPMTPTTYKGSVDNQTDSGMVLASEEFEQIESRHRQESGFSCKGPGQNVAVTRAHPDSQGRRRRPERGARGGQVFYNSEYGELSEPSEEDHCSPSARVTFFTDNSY
endpointLabel: pIC50
Schema: pIC50 number; meaning minus log10 of the concentration expressed in molar units.

[ask] Lookup: pIC50 / Vascular endothelial growth factor receptor 3 (Homo sapiens) / CNC(=O)c1cc(-n2ccc3cc(NC(=O)Nc4ccc(N5CCN(C)CC5)c(C(F)(F)F)c4)ccc32)ccn1
[reply] 7.02

###

assayTarget: Mast/stem cell growth factor receptor Kit (Homo sapiens)
Sequence (P10721 whole entry): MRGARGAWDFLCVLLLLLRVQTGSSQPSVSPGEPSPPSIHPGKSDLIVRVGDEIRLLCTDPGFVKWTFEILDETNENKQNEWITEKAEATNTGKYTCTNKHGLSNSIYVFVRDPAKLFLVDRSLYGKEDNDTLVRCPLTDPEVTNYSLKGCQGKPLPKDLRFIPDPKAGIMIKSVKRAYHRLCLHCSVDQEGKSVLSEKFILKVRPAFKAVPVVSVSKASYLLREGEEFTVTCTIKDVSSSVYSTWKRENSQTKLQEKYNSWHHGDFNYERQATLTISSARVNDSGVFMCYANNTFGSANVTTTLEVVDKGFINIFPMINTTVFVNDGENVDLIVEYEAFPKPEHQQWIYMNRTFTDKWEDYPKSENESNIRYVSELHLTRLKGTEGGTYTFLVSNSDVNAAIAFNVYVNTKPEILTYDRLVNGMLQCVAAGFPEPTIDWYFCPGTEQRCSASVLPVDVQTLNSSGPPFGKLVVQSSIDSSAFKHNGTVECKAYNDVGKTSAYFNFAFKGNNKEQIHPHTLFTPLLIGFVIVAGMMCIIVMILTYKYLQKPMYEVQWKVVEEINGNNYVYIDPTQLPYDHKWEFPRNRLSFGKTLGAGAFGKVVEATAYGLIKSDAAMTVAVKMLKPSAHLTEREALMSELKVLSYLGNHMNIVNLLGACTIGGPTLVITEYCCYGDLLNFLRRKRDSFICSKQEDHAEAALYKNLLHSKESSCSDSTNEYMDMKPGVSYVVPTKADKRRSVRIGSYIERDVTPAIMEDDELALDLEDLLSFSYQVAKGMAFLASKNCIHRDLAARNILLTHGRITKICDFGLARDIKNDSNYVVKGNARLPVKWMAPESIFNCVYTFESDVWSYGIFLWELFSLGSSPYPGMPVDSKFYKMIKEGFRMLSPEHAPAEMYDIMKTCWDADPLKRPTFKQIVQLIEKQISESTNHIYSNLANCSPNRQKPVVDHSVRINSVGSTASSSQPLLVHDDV
measurementDescription: Inhibition of CKIT (unknown origin) in presence of [gamma33]-ATP by liquid scintillation counting analysis
endpointLabel: IC50 (µM)
Provide only the numeric value, understood in µM.

[ask] I have this molecule here, CNC(=O)c1cc(-n2ccc3cc(NC(=O)Nc4ccc(N5CCN(C)CC5)c(C(F)(F)F)c4)ccc32)ccn1 , and I need its recorded IC50.
[reply] 5

###

Tested on: HepG2
measurementDescription: Antiproliferative activity against human HepG2 cells assessed as cell viability at 10 uM after 48 hrs by MTT assay relative to control
Format: functional
settings: read-out: Activity
endpointLabel: viability at 10 µM (%)
Provide only the numeric value, understood in %.

Consider the worked cases shown below.
>>> measurement("CNC(=O)c1cc(-n2ccc3cc(NC(=S)Nc4ccccc4)ccc32)ccn1")
100
>>> measurement("CNC(=O)c1cc(Oc2ccc(NC(=O)Nc3ccc(Cl)c(C(F)(F)F)c3)cc2)ccn1")
35

[ask] I have this molecule here, CNC(=O)c1cc(-n2ccc3cc(NC(=O)Nc4ccccc4)ccc32)ccn1 , and I need its recorded viability at 10 µM.
[reply] 82

[ask] I have this molecule here, CNC(=O)c1cc(-n2ccc3cc(NC(=S)Nc4ccc(Cl)c(C(F)(F)F)c4)ccc32)ccn1 , and I need its recorded viability at 10 µM.
[reply] 60

[ask] I have this molecule here, CNC(=O)c1cc(-n2ccc3cc(NC(=O)Nc4ccc(Cl)c(Cl)c4)ccc32)ccn1 , and I need its recorded viability at 10 µM.
[reply] 57

All figures here come from ChEMBL document CHEMBL4732124.
